- Assayed Target: FXR (Rattus norvegicus, UniProt Q62735)
- Sequence (Q62735 whole entry): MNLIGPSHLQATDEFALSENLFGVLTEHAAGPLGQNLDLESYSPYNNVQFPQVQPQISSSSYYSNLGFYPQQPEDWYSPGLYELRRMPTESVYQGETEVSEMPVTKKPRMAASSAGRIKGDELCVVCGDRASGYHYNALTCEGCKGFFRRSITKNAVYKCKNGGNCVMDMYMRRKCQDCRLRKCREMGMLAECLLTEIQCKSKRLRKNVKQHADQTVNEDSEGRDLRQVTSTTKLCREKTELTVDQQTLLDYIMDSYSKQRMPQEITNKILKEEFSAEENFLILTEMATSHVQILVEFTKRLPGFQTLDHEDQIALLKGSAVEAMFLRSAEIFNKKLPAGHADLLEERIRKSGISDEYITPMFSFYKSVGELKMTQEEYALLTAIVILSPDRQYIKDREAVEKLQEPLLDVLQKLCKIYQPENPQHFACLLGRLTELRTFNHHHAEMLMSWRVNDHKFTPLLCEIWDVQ
- Sequence (P28700 whole entry partner): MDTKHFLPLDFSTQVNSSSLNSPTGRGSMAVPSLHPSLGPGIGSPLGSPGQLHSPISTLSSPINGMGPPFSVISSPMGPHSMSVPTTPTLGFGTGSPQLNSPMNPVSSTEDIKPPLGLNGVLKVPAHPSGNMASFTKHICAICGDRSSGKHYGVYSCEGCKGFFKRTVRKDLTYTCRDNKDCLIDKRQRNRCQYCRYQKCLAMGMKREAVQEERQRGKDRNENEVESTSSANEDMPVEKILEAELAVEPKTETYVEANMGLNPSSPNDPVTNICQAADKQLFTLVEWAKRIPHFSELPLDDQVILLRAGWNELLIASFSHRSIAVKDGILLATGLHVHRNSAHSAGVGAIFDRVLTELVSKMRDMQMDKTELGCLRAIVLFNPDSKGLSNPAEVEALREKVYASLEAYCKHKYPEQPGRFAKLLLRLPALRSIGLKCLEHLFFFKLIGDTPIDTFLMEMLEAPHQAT
- Test Summary: cell-based
- Condition Notes: 1 mM
Measured FXR-dependent activity, induction, listed per entry for reference.
Please give a number only; it is taken to be in fold.

| Compound | Assayed Target | FXR-dependent activity, induction, fold |
| --- | --- | --- |
| CCCC(=O)Nc1ncnc2c1ncn2[C@@H]1O[C@@H]2COP(=O)(O)O[C@H]2[C@H]1OC(=O)CCC [dibutyryl cAMP] | FXR (Rattus norvegicus, UniProt Q62735) | 4 |
| COc1ccc2ccc(=O)oc2c1 [7-methoxycoumarin] | FXR (Rattus norvegicus, UniProt Q62735) | 10 |

Prompt: Find the recorded FXR-dependent activity, induction belonging to Nc1ncnc2c1nc(Br)n2[C@@H]1O[C@@H]2COP(=O)(O)O[C@H]2[C@H]1O [8-Br-cAMP] and report it.
Response: 4

Prompt: Note, next up: CC/C=C\CC1C(=O)CCC1CC(=O)OC (stereo not shown) [methyl jasmonate]
Response: 17

====

- Assayed Target: FXR (Rattus norvegicus)
- Test Summary: cell-based
- Condition Notes: 7.5 μM
Recorded Metric: FXR-dependent transcription, induction

| Compound | Recorded Metric | Result |
| --- | --- | --- |
| CC(C)CC[C@H](O)[C@@H](C)[C@H]1CC[C@H]2[C@@H]3CC=C4C[C@@H](O)CC[C@]4(C)[C@H]3CC[C@]12C [22S-hydroxycholesterol] | FXR-dependent transcription, induction | not |
| CC(C)CCC[C@@H](C)[C@H]1CC[C@H]2[C@@H]3[C@H](O)C=C4C[C@@H](O)CC[C@]4(C)[C@H]3CC[C@]12C [7α-hydroxycholesterol] | FXR-dependent transcription, induction | not |
| CC(C)CCC[C@@H](C)[C@H]1CC[C@H]2[C@@H]3C(=O)C=C4C[C@@H](O)CC[C@]4(C)[C@H]3CC[C@]12C [7-ketocholesterol] | FXR-dependent transcription, induction | not |

====

- Assayed Target: FXR (Rattus norvegicus)
- Test Summary: cell-based
- Condition Notes: 50 μM

| Smiles Notation | FXR-dependent CAT activity, induction |
| --- | --- |
| O=c1c(O)c(-c2ccc(O)c(O)c2)oc2c(O)c(O)cc(O)c12 | unresponsive |
| O=c1c(-c2ccc(O)cc2)coc2cc(O)cc(O)c12 | unresponsive |
| O=C1c2c(O)cc(O)cc2O[C@H](c2ccc(O)c(O)c2)[C@H]1O | unresponsive |

====

- Assayed Target: FXR (Rattus norvegicus, UniProt Q62735)
- Test Summary: cell-based
- Condition Notes: 1 mM

| Compound | FXR-dependent activity, induction |
| --- | --- |
| COc1cc2ccc(=O)oc2cc1O [7-hydroxy-6-methoxycoumarin] | ineffectiveness |
| O=c1ccc2cc(O)c(O)cc2o1 | ineffectiveness |
